Target: recombinant human Myt1 (Homo sapiens (Human))
Sequence (Q99640 whole entry): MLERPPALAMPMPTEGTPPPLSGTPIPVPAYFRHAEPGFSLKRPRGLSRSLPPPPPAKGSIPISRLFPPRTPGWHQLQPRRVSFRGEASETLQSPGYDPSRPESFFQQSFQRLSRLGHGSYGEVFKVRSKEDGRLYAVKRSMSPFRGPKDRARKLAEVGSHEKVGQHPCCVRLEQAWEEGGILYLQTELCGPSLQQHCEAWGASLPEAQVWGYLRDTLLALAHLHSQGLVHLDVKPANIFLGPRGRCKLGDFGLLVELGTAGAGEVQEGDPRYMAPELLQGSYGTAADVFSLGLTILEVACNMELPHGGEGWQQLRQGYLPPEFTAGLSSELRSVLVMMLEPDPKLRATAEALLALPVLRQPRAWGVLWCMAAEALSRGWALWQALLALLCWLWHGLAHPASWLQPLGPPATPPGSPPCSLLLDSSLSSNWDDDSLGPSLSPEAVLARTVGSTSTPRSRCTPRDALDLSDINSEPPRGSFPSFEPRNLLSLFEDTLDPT
Test: Myt1 enzymatic assay (ADP-Glo kinase assay)
Conditions: 18 nM enzyme, 10 uM ATP
measured-property: IC50

compound: Cc1ccc(O)c(C)c1-n1c(N)c(C(N)=O)c2cc(C(C)C)cnc21 [Compound 138]
measured-property: IC50
measured: < 10 nM

compound: Cc1ccc(O)c(C)c1-n1c(N)c(C(N)=O)c2nc(C(C)(C)F)cnc21 [Compound 178]
measured-property: IC50
measured: < 10 nM

compound: Cc1ccc(O)c(C)c1-n1c(N)c(C(N)=O)c2nc(-c3ccnnc3)cnc21 [Compound 250]
measured-property: IC50
measured: < 10 nM

compound: Cc1ccc(O)c(C)c1-n1c(N)c(C(N)=O)c2c(C)c(Cl)cnc21 [Compound 313]
measured-property: IC50
measured: < 10 nM

compound: Cc1ccc(O)c(C)c1-n1c(N)c(C(N)=O)c2nc(-c3nc4ccccc4s3)cnc21 [Compound 248]
measured-property: IC50
measured: < 10 nM

compound: CNC(=O)C1CCN(c2cnc3c(n2)c(C(N)=O)c(N)n3-c2c(C)ccc(O)c2C)CC1 [Compound 46]
measured-property: IC50
measured: < 10 nM

As a next step, examine the compound that follows.
Task: For the compound Cc1ncc(O)cc1-n1c(N)c(C(N)=O)c2nc(C)c(C)nc21 [Compound 262] , give its reported IC50.
Output: 3230 nM
